System: LOX IMVI melanoma
PROTOCOL: NCI-60 one-dose screen, 48 h (100 = growth as untreated, 0 = no growth, -100 = all killed)
EXPERIMENTAL_CONTEXT: 10 µM unless noted
The panel holds about 83,000 compounds, 20% with a hit somewhere; the sample as a whole holds those more often.
Kindly supply the reported growth values for the records listed here.
One number for each entry, in %.

Solved cases below.
COMPOUND	ENDPOINT_UNIT	growth
COc1cc2c(c(OC)c1OC)CCC(c1cccc(C(=O)Nc3ccccc3Br)c1)O2 (stereo not given)	%	90.2
CCCCCCCCCCCCCCCCCCOc1ccccc1CC(=O)OCC[N+]1(C)CCCCC1	%	1.71
COc1ccc(NC(=O)c2ccc(Cl)cc2Cl)cc1	%	98.2
C#CCOc1cccc(Nc2ncnc3c(NC(=O)CCl)cccc23)c1	%	-79.7
COc1ccc2c(O)cc3c(c2c1)[C@H](CCl)CN3C(=O)c1cc2cc(NC(=O)CCN3CCOCC3)ccc2[se]1	%	-62.5

Each of the following entries comes with a recorded value; kindly state growth for each.
1. C=CCNc1nc(O)c(/C=C2\C=Nc3ncccc32)s1
2. COC(=O)CNC(=O)c1ccc(NC(=O)c2[nH]c(C)c(Cl)c2Cl)c(O[C@H]2CCNC2)c1
3. CC(C)C(=O)Nc1ncc(C(=O)NCCN(Cc2ccccc2)C(=O)c2ccc(S(=O)(=O)Nc3ccccc3)cc2)s1

0.553
94.4
104

Each of the following entries comes with a recorded value; kindly state growth for each.
1. CCOC(=O)C#Cc1c(CC(=O)OCC)nnn1[C@H]1O[C@@H](CO)[C@@H]2OC(C)(C)O[C@@H]21
2. COC(CCP(=O)(c1ccccc1)c1ccccc1)(C(=O)c1ccccc1)c1ccccc1 (stereo not given)

1. 47.3
2. 64.6

Each of the following entries comes with a recorded value; kindly state growth for each.
1. Cc1c(CC(=O)Nc2ccccc2)nnn1-c1ccccc1
2. C#C[C@]1(O)CC[C@H]2[C@@H]3CC=C4c5sc(-c6ccccc6)nc5CC[C@]4(C)[C@H]3CC[C@@]21C
3. C=CN(C(=O)N1CCN(c2cc3c(cc2F)c(=O)c(C(=O)O)cn3C2CC2)CC1)c1nc(-c2ccc(C)cc2)cs1
4. CNC1=C([N+](=O)[O-])C(c2ccc(OC)cc2)C(C#N)=C(c2ccc[nH]2)O1 (stereo not given)
5. O=C(/C=C/C12c3ccccc3C(c3ccccc31)C1C(=O)NC(=O)C12)c1cccs1 (stereo not given)
6. CC1=C(C(=O)OCc2ccccc2)C(c2ccc3c(c2)OCO3)n2c(nc3ccccc32)N1 (stereo not given)

97.7
74.9
8.56
99
28.6
34.6

----------
Test system: KM12 colon
PROTOCOL: NCI-60 one-dose screen, 48 h
EXPERIMENTAL_CONTEXT: 10 µM unless noted
The panel holds about 83,000 compounds, 20% with a hit somewhere; the sample as a whole holds those more often. The source made the active and inactive calls. Rule for the calls: active = growth percent below 10; inactive = the rest.
Write down the outcome that applies. Available outcomes: Yes (active), No (inactive)

COMPOUND	TARGET_DESC	LABEL
CCN1CCN(c2cc(C(=O)Nc3cccc(Nc4ccc5c(OC)cccc5n4)c3)cc(C(F)(F)F)c2)CC1	KM12 colon	Yes
COC(=O)c1c(C)nc(C)c2c1C(=O)C(Br)=C(NCCCCO)C2=O	KM12 colon	No
CCCCCN(CCCCC)CC(O)c1c(Cl)ccc2ccccc12 (stereo not drawn)	KM12 colon	No
CCN=c1sc2c(n1NC(=O)c1cc3ccc1CCc1ccc(cc1)CC3)C(=O)c1ccccc1C2=O	KM12 colon	Yes
CNC1=C(Br)C(=O)c2c(C(=O)OC)c(C)nc(C)c2C1=O	KM12 colon	No
O=C(Nc1ccc2[nH]ncc2c1)c1csc(Nc2ccccc2)n1	KM12 colon	No
C/C(=C(\c1ccc(OCCCN(C)C)cc1)c1ccc(OC(=O)Cc2ccccc2)cc1)c1ccc(Cl)cc1	KM12 colon	No
COc1ccccc1-c1nc2ccc3[nH]ncc3c2c2c1CCCC2	KM12 colon	No
CC1=C2[C@@H](CC1)[C@]1(C)O[C@@](C(C)C)(C[C@H]1OC(=O)CO)[C@H]2OC(=O)CCCc1ccccc1	KM12 colon	No
COc1ccc(Cn2cc(C(=O)N=Nc3c(O)[nH]c4ccc(Br)cc34)nn2)cc1	KM12 colon	No

Recorded test outcome, item c1ccc2c(-c3cnn4cc(-c5ccc(N6CCNCC6)cc5)cnc34)ccnc2c1
Yes

Recorded test outcome, item [2H]C([2H])([2H])Oc1ccc(/C=C/C(=O)/C=C(/C=C/c2ccc(OC([2H])([2H])[2H])c(OC([2H])([2H])[2H])c2OC([2H])([2H])[2H])OB(F)F)c(OC([2H])([2H])[2H])c1OC([2H])([2H])[2H]
No

Recorded test outcome, item CN1CCN(Cc2ccc(NC(=O)c3cncc(C#Cc4c(N)ncc5cc(F)ccc45)c3)cc2C(F)(F)F)CC1
Yes

Recorded test outcome, item CCOC(=O)CCC(=O)P(=O)(O)O
No

Recorded test outcome, item CCOc1ccc(-c2cc(C3(S(=O)(=O)c4ccc(C)cc4)CC=CC3)on2)cc1
No

Recorded test outcome, item Nc1cc(-c2ccc(Cl)cc2)nn1-c1nc(-c2ccc(Br)cc2)cs1
No

Recorded test outcome, item O=C(Nc1ccc(Oc2cccc(F)c2)c(Cl)c1)c1cnccn1
No

Recorded test outcome, item COc1ccc(/C=C/C(=O)c2ccc(-n3cc(CN4CCN(c5cc6c(cc5F)c(=O)c(C(=O)O)cn6C5CC5)CC4)nn3)cc2)cc1
No

Recorded test outcome, item O=C(Nc1cccc(Cl)c1)Oc1c(Cl)c(Cl)c(Cl)c(Cl)c1Cl
No

Recorded test outcome, item CCCCCCCCNc1ncnc2c1ncn2Cc1nnc2c3ccccc3c(Cl)nn12
No

Recorded test outcome, item Cc1c(Cl)cccc1NC(=O)c1sc2nc3c(cc2c1N)CCCC3
No

Recorded test outcome, item CN1CCN(Cc2ccc(NC(=O)c3cc(C#Cc4cnc(N)c5ncccc45)n(C)n3)cc2C(F)(F)F)CC1
No

Recorded test outcome, item C=CCOC(=O)C1=C(C)N(CC)C(=O)N(CC)C1c1c(Cl)n(C)c2ccccc12 (stereo not drawn)
No

Recorded test outcome, item CN1C(=O)N(C)C2C1NN=c1s/c(=C\c3ccccc3F)c(=O)n12 (stereo not drawn)
No

Recorded test outcome, item CC(C)(C)c1ccc(C(=O)Nc2sc3c(c2C#N)CCC(=O)C3)cc1
No

Recorded test outcome, item C=CCn1c(SCC(=O)Nc2ccc(C(=O)/C=C/c3ccc(Cl)cc3)cc2)nnc1-c1ccccc1
No

Recorded test outcome, item CCOC(=O)C1=C(C)N(C)C(=O)N(C)C1c1ccccc1 (stereo not drawn)
No

Recorded test outcome, item COc1cc2c(c(OC)c1OC)C(=O)CC(c1cccc(C(=O)Nc3ccc(Br)cc3)c1)O2 (stereo not drawn)
No

Recorded test outcome, item Cc1ccc(Nc2oc(-c3ccccc3)nc2[P+](c2ccccc2)(c2ccccc2)c2ccccc2)cc1
Yes

Recorded test outcome, item O=C1/C(=C/c2cccc([N+](=O)[O-])c2)COc2ccc(O)c(O)c21
Yes

Recorded test outcome, item Cc1ccc(OCCOCCOCCOCCOc2ccc(C)n(O)c2=S)c(=S)n1O
No

Recorded test outcome, item O=C(Nc1ccc(Cl)cc1)C1=NCCCCN1
No

Recorded test outcome, item COc1cccc2cc(N(C)c3ncnc4ccccc34)ccc12
Yes

----------
Test system: OVCAR-4 ovarian
PROTOCOL: NCI-60 one-dose screen, 48 h
EXPERIMENTAL_CONTEXT: 10 µM unless noted
Compounds without any hit were thinned out: in the full panel of roughly 83,000, 20% have a hit. Calls of active or inactive are those of the source. Rule for the calls: active = growth percent below 10; inactive = the rest.
Write down the outcome that applies. Available outcomes: True (active), False (inactive)

MOLECULE	TARGET_DESC	LABEL
CN1CCN(Cc2ccc(NC(=O)c3cncc(C#Cc4c(N)ncc5cc(F)ccc45)c3)cc2C(F)(F)F)CC1	OVCAR-4 ovarian	False
COc1ccc(-c2ccc(-c3ccc(C(=N)N)o3)o2)cc1	OVCAR-4 ovarian	False
COc1ccccc1NC(=O)n1c(=O)cc(C)c2ccc(O)cc21	OVCAR-4 ovarian	False
CC(=O)O[C@H]1CC[C@@]2(C)C(=CC[C@@H]3[C@@H]2CC[C@]2(C)C(Cl)=C(c4nc5ccc(Cl)cn5c4NC(C)(C)C)C[C@@H]32)C1	OVCAR-4 ovarian	False
O=C1/C(=C/c2cccc(Br)c2)COc2ccc(O)c(O)c21	OVCAR-4 ovarian	True

Recorded test outcome, item CCCCN(CCC#N)C(N)=O
False

Recorded test outcome, item C=C(C[n+]1ccccc1)[C@@H]1CC[C@]2(C(=O)OC)CC[C@]3(C)[C@H](CC[C@@H]4[C@@]5(C)CCC(=O)C(C)(C)[C@@H]5CC[C@]43C)[C@@H]12
False

Recorded test outcome, item CCn1c2ccccc2c2cc(C(O)c3cccc4ncccc34)ccc21 (stereo unspecified)
False

Recorded test outcome, item Clc1ccc2c(NCCCn3cnc4c(N5CCCC5)nc(Cl)nc43)ccnc2c1
False

Recorded test outcome, item O=C(O)c1nn(-c2ccc(Cl)cc2)nc1N1CCCC1
False

Recorded test outcome, item CN1CCN(Cn2nc(-c3cc(Cl)cc(Cl)c3Cl)oc2=S)CC1
False

Recorded test outcome, item O=C1c2ccccc2C(=O)c2cc(Cn3c[n+](Cc4ccc5ccccc5c4)c4ccccc43)ccc21
False

Recorded test outcome, item C=C1C(=O)O[C@H]2[C@H]1CC/C(COC(=O)NCc1ccc(Cn3c(=O)sn(CCCC)c3=O)cc1)=C\CC[C@@]1(C)O[C@@H]21
False

Recorded test outcome, item COc1cc2c(cc1OC)CC[N+](CCC[N+](C)(C)C)=C2
False

All values here come from PubChem BioAssay (NCI).
